Molecular target: T1, human TREM2 (human, UniProt Q9NZC2 19-174, limits assumed)
T1 sequence: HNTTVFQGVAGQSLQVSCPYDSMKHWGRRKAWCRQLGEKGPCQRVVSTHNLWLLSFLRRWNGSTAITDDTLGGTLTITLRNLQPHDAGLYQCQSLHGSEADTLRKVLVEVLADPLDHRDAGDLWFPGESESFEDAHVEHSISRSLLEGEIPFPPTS
Test: yeast-displayed Fab FACS, 1st screen 10 nM
MEASURE_NAME: binding signal fold over 6E7 parental (fold)
Dear colleague, please return just the value in fold, with no unit written.

BINDER	OUTPUT_UNIT	binding signal fold over 6E7 parental
V29 (Fab, V domains shown) VH: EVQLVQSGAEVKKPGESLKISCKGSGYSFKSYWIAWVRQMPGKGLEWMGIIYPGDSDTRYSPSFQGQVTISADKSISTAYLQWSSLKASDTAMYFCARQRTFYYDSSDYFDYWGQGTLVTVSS VL: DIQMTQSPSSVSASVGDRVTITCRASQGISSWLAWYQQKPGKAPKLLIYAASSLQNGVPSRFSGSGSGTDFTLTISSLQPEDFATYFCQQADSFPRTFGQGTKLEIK	fold	1.53

Entry V61 (Fab, V domains shown) VH: EVQLVQSGAEVKKPGESLKISCKGSGYSFSSYWIAWVRQMPGKGLEWMGIIYPGDSDTRYNPSFQGQVTISADKSISTAYLQWSSLKASDTAMYFCARGRTFYYDSSDYFDYWGQGTLVTVSS VL: DIQMTQSPSSVSASVGDRVTITCRASQGISSWLAWYQQKPGKAPKLLIYAASSLVNGVPSRFSGSGSGTDFTLTISSLQPEDFATYFCQQADSLPRTFGQGTKLEIK — recorded binding signal fold over 6E7 parental = 5.08
